System: Mycobacterium tuberculosis
experimental_protocol: Antimycobacterial activity against Mycobacterium tuberculosis H37Rv ATCC 25618 incubated for 7 days by resazurin dye based two-dimensional micro dilution checkerboard assay in presence of 1-((3,4,5-trimethoxybenzyl)oxy)heptadecan-2-amine
Assay type: functional
test_parameters: time 7 day
Each entry below lists one item and its recorded FIC value.
measurement_name: FIC

1. NNC(=O)c1ccncc1
0.5
2. NCC[C@H](O)C(=O)N[C@@H]1C[C@H](N)[C@@H](O[C@H]2O[C@H](CN)[C@@H](O)[C@H](O)[C@H]2O)[C@H](O)[C@H]1O[C@H]1O[C@H](CO)[C@@H](O)[C@H](N)[C@H]1O
0.5
3. CC[C@@H](CO)NCCN[C@@H](CC)CO
0.5
4. CO[C@H]1/C=C/O[C@@]2(C)Oc3c(C)c(O)c4c(O)c(c(/C=N/N5CCN(C)CC5)c(O)c4c3C2=O)NC(=O)/C(C)=C\C=C\[C@H](C)[C@H](O)[C@@H](C)[C@@H](O)[C@@H](C)[C@H](OC(C)=O)[C@@H]1C
0.25
5. C[C@H]1COc2c(N3CCN(C)CC3)c(F)cc3c(=O)c(C(=O)O)cn1c23 [LEVOFLOXACIN ANHYDROUS]
0.5

* * *

experimental_protocol: Cytotoxicity against African green monkey Vero cells assessed as reduction in cell population incubated for 48 hrs by MTT assay
Format: toxicity, cell-based
test_parameters: chlorocebus sabaeus
measurement_name: CC50 at 48 h (µM)

1. CCCCCCCCCCCCCCCC(CNCCCCCC)NC(=O)OC(C)(C)C (stereo not drawn)
22.9
2. CCCCCCCCCCCCCCCC(COCc1ccccc1)NCC (stereo not drawn)
26
3. CCCCCCCCCCCCCCCC(CNCCCC)NC(=O)OC(C)(C)C (stereo not drawn)
20.3
4. CCCCCCCCCCCCCCCC(N)CN (stereo not drawn)
192
5. CCCCCCCCCCCCCCCC(CN=[N+]=[N-])NC(=O)OC(C)(C)C (stereo not drawn)
63.8
6. CCCCCCCCCCCC(CO)NCC (stereo not drawn)
37.3
7. CCCCc1ccc(CCCCCC(CO)NC(=O)OC(C)(C)C)cc1 (stereo not drawn)
51.5
8. CCCCc1ccc(CCCCCCCC(N)CO)cc1 (stereo not drawn)
21.2
9. CCCCCCCCCCCCCCCC(COCc1ccccc1)NCCCCCC (stereo not drawn)
54
10. CCCCCCCCCCCCCCCC(CNCC(=O)OCC)NC(=O)OC(C)(C)C (stereo not drawn)
39
11. CCCCCCCCCCCC(N)CO (stereo not drawn)
40.8
12. CCCCCCCCCCCCCCCC(N)COCc1ccccc1 (stereo not drawn)
42.2
13. CCCCCCCCCCCCCCCCCC(CO)NCCCC (stereo not drawn)
148

* * *

experimental_protocol: Cytotoxicity against mouse J774.A1 cells assessed as reduction in cell population incubated for 48 hrs by MTT assay
Type: toxicity, cell-based
Sorting guide: entries reporting CC50 at 48 h beneath 20 µM go in the YES pile, the rest go in the NO pile.

1. CCCCc1ccc(CCCCCCCC(CO)NC(=O)OC(C)(C)C)cc1 (configuration not stated)
YES
2. CCCCCCCCCCCCCCCC(N)COCc1ccccc1 (configuration not stated)
YES
3. CCCCCCCCCCCC(CO)NCC (configuration not stated)
YES
4. CCCCc1ccc(CCCCCCCCCC(CO)NC(=O)OC(C)(C)C)cc1 (configuration not stated)
YES
5. CCCCCCCCCCCCCCCCCCCC(CO)N(CC)CC (configuration not stated)
NO
6. CCCCCCCCCCCCCCCC(CO)NCCCCCC (configuration not stated)
NO
7. CCCCCCCCCCCCCCCC(CO)N(CC)CC (configuration not stated)
NO
8. CCCCCCCCCCCC(CO)NCCCC (configuration not stated)
NO
9. CCCCCCCCCCCCCCCC(COCc1ccccc1)NCC (configuration not stated)
NO
10. CCCCCCCCCCCCCCCC(CN=[N+]=[N-])NC(=O)OC(C)(C)C (configuration not stated)
NO
11. CCCCCCCCCCCCCCCCCCCC(CN)NC(=O)OC(C)(C)C (configuration not stated)
NO
12. CCCCCCCCCCCCCCCC(N)CNCC (configuration not stated)
NO
13. CCCCCCCCCCCCCCCC(CNCC(=O)OCC)NC(=O)OC(C)(C)C (configuration not stated)
NO
14. CCCCCCCCCCCCCCCCCCCC(N)COCc1ccccc1 (configuration not stated)
NO
15. CCCCCCCCCCCCCCCC(COCc1ccccc1)NCCCCCC (configuration not stated)
NO
16. CCCCCCCCCCCCCCCCCCCC(CNCC)NC(=O)OC(C)(C)C (configuration not stated)
YES
17. CCCCCCCCCCCCCCCCCC(N)CO (configuration not stated)
YES
18. CCCCCCCCCCCCCCCCCC(CO)NCC (configuration not stated)
NO
19. CCCCCCCCCCCCCCCCCC(CO)NCCCC (configuration not stated)
NO
20. CC[C@@H](CO)NCCN[C@@H](CC)CO
NO
21. CCCCc1ccc(CCCCCC(CO)NC(=O)OC(C)(C)C)cc1 (configuration not stated)
YES
22. CCCCCCCCCCCCCCCC(CO)NCC (configuration not stated)
NO
23. CCCCCCCCCCCCCCCC(N)COCc1cc(OC)c(OC)c(OC)c1 (configuration not stated)
NO
24. CCCCCCCCCCCCCCCC(CO)NCCCC (configuration not stated)
NO
25. CCCCCCCCCCCCCCCC(CNCCCCCC)NC(=O)OC(C)(C)C (configuration not stated)
NO
26. CCCCCCCCCCCCCCCC(N)CO (configuration not stated)
YES
27. CCCCCCCCCCCCCCCCCCCC(COCc1ccccc1)NCC (configuration not stated)
NO
